# TARGET_OR_TEST_SYSTEM: T1, Recombinant human CD137/His (human, UniProt Q07011 24-186)
# T1 construct: Analyte of the SPR assay; also called 4-1BB; TNFRSF9; not shown: His tag
# ASSAY_PROCEDURE: SPR (Biacore), antibody captured on anti-human Fc, human CD137/His as analyte, 1:1 fit
# Method: This example illustrates binding affinities of exemplary anti-CD137 antibodies disclosed herein. Affinities were determined using surface plasmon resonance (Biacore). Briefly, anti-human Fc antibody (GE, BR-1008-39) was immobilized on CM5 sensor chip to approximately 1000 RU using standard NHS/EDC coupling methodology. Antibodies (about 10 μg/ml) were captured for 60 s at a flow rate 10 μl/min Recombinant human CD137/His was serially diluted in running buffer (HBS-EP). […]
PROPERTY_LABEL: kon (M⁻¹ s⁻¹)
// units = M⁻¹ s⁻¹; emit number, no label

| BINDER | PROPERTY_LABEL | READOUT_VALUE |
| --- | --- | --- |
| anti-CD137 antibody MSH1 (antibody, V domains shown, Variant of D6 with the same light chain variable domain) VH: QMQLVQSGAEVKKPGASVKVSCKASGYNFGGYYMHWVRQAPGQGLEWMGWVNPHSGGTNYAQKFQGRVTITRDTSASTAYMELSSLRSEDTAVYYCAREGEAWGLDLDLWGQGTLVTVSS VL: SYELTQPPSVSVAPGKTARITCGGNNIGSKSVHWYQQKPGQAPVLVIYYDSDRPSGIPERFSGSNSGNTATLTISRVEAGDEADYYCQVWDSSSVVFGGGTQLTVL | kon | 369000 |
| anti-CD137 antibody MSA11 (antibody, V domains shown, Variant of D6 with the same light chain variable domain) VH: QMQLVQSGAEVKKPGASVKVSCKASGYSFTGYYMHWVRQAPGQGLEWMGWVNPKSGGTNYAQKFQGRVTITRDTSASTAYMELSSLRSEDTAVYYCAREGWARRIDLDEWGQGTLVTVSS VL: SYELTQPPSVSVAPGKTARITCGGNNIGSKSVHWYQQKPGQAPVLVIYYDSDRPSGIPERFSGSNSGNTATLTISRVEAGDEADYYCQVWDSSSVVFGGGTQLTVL | kon | 135000 |
| anti-CD137 antibody MB3 (antibody, V domains shown, Variant of D6 with the same light chain variable domain) VH: QMQLVQSGAEVKKPGASVKVSCKASGYQMRGYYMHWVRQAPGQGLEWMGWINPNSGGTNYAQKFQGRVTITRDTSASTAYMELSSLRSEDTAVYYCAREGEAVGLDLDYWGQGTLVTVSS VL: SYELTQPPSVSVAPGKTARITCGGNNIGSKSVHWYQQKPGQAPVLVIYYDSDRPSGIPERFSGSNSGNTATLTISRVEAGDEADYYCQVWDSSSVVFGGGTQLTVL | kon | 296000 |

Next, consider the following binder.
Q: # lookup: kon of anti-CD137 antibody MD4 (antibody, V domains shown, Variant of D6 with the same light chain variable domain) VH: QMQLVQSGAEVKKPGASVKVSCKASGYNWTGYYMHWVRQAPGQGLEWMGWINPMAGGTNYAQKFQGRVTITRDTSASTAYMELSSLRSEDTAVYYCAREGWARGVELDMWGQGTLVTVSS VL: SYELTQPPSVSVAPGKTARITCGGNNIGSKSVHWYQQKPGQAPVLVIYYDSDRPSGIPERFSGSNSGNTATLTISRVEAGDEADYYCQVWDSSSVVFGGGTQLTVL
Result: 576000
